Target: T1, Ep-CAM (UniProt P16422 24-265, limits assumed)
T1 sequence (looked up): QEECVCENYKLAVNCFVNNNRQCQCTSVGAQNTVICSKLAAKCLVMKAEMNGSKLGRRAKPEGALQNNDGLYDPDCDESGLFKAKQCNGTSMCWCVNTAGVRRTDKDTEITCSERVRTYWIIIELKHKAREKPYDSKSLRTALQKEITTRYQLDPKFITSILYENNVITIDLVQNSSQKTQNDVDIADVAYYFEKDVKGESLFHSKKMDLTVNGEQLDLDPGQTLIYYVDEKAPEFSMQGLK
Assay: Biacore, Fab periplasmic extract on immobilised Epcam
metricName: fold difference in affinity vs original

Name the reported fold difference in affinity vs original value associated with the binder ING-1 Fab, heavy chain E56P (Fab, V domains shown, Fab in periplasmic extract) VH: QIQLVQSGPELKKPGETVKISCKASGYTFTKYGMNWVKQAPGKGLKWMGWINTYTPEPTYGDDFKGRFAFSLETSASTANLQINNLKSEDTATYFCARFGSAVDYWGQGTSVTVSS VL: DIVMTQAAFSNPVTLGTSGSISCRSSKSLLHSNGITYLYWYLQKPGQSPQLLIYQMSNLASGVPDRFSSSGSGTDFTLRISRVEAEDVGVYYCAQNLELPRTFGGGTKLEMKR
0.01 fold

Name the reported fold difference in affinity vs original value associated with the binder ING-1 Fab, heavy chain G33V (Fab, V domains shown, Fab in periplasmic extract) VH: QIQLVQSGPELKKPGETVKISCKASGYTFTKYVMNWVKQAPGKGLKWMGWINTYTEEPTYGDDFKGRFAFSLETSASTANLQINNLKSEDTATYFCARFGSAVDYWGQGTSVTVSS VL: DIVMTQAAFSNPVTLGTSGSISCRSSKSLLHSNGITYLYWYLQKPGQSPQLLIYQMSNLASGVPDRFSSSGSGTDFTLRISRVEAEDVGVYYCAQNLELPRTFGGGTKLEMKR
0.04 fold
